measured.target: acyl CoA:cholesterol acyl transferase (Mus musculus)
Construct: host or cells: J774 mouse macrophages, cholesterol-loaded
Sequence (Q61263 1-540): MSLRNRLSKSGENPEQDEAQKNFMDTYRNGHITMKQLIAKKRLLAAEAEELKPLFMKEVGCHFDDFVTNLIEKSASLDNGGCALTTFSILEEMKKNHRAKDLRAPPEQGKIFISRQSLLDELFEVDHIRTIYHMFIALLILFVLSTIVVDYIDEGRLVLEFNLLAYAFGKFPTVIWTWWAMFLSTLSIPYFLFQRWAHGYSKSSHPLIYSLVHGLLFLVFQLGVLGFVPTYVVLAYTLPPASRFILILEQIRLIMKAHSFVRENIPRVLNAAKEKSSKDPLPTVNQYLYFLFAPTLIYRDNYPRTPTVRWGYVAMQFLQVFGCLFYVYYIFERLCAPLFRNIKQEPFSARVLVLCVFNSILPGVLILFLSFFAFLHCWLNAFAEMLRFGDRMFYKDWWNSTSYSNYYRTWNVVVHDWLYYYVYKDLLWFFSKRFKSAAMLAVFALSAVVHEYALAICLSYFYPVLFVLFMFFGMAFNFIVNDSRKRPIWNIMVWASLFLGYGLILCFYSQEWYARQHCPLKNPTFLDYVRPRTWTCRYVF
assay.name: Incorporation of [14C]oleate into cholesteryl ester in cholesterol-laden macrophages (ACAT activity)
Assay type: cell-based, murine
test.context: liposomes containing 0.5 μM synthetic peptide; 6 hour incubation; cholesterol-laden murine cells
result.type: relative acyl CoA:cholesterol acyl transferase activity

- VWAAEKISDGREAFQEFFGRGHEDTIADQE [SEQ ID NO:3, synthetic peptide, residues 51-80 of murine SAA2.1]: no significant effect
- DTIADQEANRHGRSGKDPNYYRPPGLPDKY [SEQ ID NO:4, synthetic peptide, residues 74-103 of murine SAA2.1]: no significant effect
- TDMKEANWKNSDKYFHARGNYDAAQRGPGG [SEQ ID NO:2, synthetic peptide, residues 21-50 of murine SAA2.1]: no significant effect
